# targetUnderTest: human GLP-1 receptor (human, UniProt P43220 24-463)
# testDescription: cell-based or functional assay
reportedEndpoint: cAMP EC50 (1.0% HSA) (nM)
// note: answer is a bare numeric in nM

Look up cAMP EC50 (1.0% HSA) for this binder: YXEGTXTSDXXIXLDXKAQXKFIXXLIEGGPSSGAPPPS (Y-Aib-EGT-αMeF(2F)-TSD-4Pal-Aib-I-αMeL-LD-Orn-K(PEG3-(γ-Glu)-CO-(CH2)12-CO2H)AQ-Aib-K(PEG3-(γ-Glu)-CO-(CH2)12-CO2H)FI-(D-Glu)-αMeY-LIEGGPSSGAPPPS-NH2) [Example 404] 49.1

Look up cAMP EC50 (1.0% HSA) for this binder: YXEGTXTSDXXIXLDXQAQXEFIKXLIKGGPSSGAPPPS (Y-Aib-EGT-αMeF(2F)-TSD-4Pal-Aib-I-αMeL-LD-Orn-QAQ-Aib-EFIK(2-[2-(2-Amino-ethoxy)-ethoxy]-acetyl)3-(γ-Glu)-(10-(4-carboxyphenoxy)decanoyl)-αMeY-LIK((2-[2-(2-Amino-ethoxy)-ethoxy]-acetyl)3-(γ-Glu)-(10-(4-carboxyphenoxy)decanoyl)GGPSSGAPPPS-NH2)) [Example 464] 4.48

Look up cAMP EC50 (1.0% HSA) for this binder: YXEGTXTSDXXIXLDXQAQXXFIKXLIKGGPSSGAPPPS (Y-Aib-EGT-αMeF(2F)-TSD-4Pal-Aib-I-αMeL-LD-Orn-QAQ-Aib-Orn-FIK(2-[2-(2-Amino-ethoxy)-ethoxy]-acetyl)2-(γ-Glu)-(11-(4-carboxyphenoxy)undecanoyl)-αMeY-LIK((2-[2-(2-Amino-ethoxy)-ethoxy]-acetyl)2-(γ-Glu)-(11-(4-carboxyphenoxy)undecanoyl)GGPSSGAPPPS-NH2)) [Example 442] 7.63

Look up cAMP EC50 (1.0% HSA) for this binder: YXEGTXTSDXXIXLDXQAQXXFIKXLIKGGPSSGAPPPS (Y-Aib-EGT-αMeF(2F)-TSD-4Pal-Aib-I-αMeL-LD-Orn-QAQ-Aib-Orn-FIK(PEG4-(γ-Glu)-CO-(CH2)12-CO2H)-αMeY-LIK(PEG4-(γ-Glu)-CO-(CH2)12-CO2H)GGPSSGAPPPS-NH2) [Example 457] 4.69

Look up cAMP EC50 (1.0% HSA) for this binder: YXEGTXTSDXXIXLDXKAQXEXIXXLIEGGPSSGAPPPSK (Y-Aib-EGT-αMeF(2F)-TSD-4Pal-Aib-I-αMeL-LD-Orn-K((2-[2-(2-Amino-ethoxy)-ethoxy]-acetyl)3-(Y-Glu)-CO-(CH2)10-CH3)AQ-Aib-E-αMeF-I-(D-Glu)-αMeY-LIEGGPSSGAPPPSK((2-[2-(2-Amino-ethoxy)-ethoxy]-acetyl)3-(γ-Glu)-CO-(CH2)10-CH3)-NH2) [Example 439] 9.25

Look up cAMP EC50 (1.0% HSA) for this binder: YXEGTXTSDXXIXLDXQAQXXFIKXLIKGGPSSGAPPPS (Y-Aib-EGT-αMeF(2F)-TSD-4Pal-Aib-I-αMeL-LD-Orn-QAQ-Aib-Orn-FIK((2-[2-(2-Amino-ethoxy)-ethoxy]-acetyl)-(γ-Glu)-(2-[2-(2-Amino-ethoxy)-ethoxy]-acetyl)-(γ-Glu)-(10-(4-carboxyphenoxy)decanoyl))-αMeY-LIK((2-[2-(2-Amino-ethoxy)-ethoxy]-acetyl)-(γ-Glu)-(2-[2-(2-Amino-ethoxy)-ethoxy]-acetyl)-(γ-Glu)-(10-(4-carboxyphenoxy)decanoyl))GGPSSGAPPPS-NH2) [Example 485] 3.9
